Assay: Apparent permeability of the compound
Format: physicochemical
Conditions: not told
Papp: recorded values

[
  {
    "cpdSmiles": "O=C(O)[C@H]1O[C@@H](Oc2cc3oc(-c4ccccc4)cc(=O)c3c(O)c2O)[C@H](O)[C@@H](O)[C@@H]1O",
    "Papp": "0.037 ×10⁻⁶ cm/s"
  },
  {
    "cpdSmiles": "O=c1cc(-c2ccccc2)oc2cc(O)c(O)c(O)c12",
    "Papp": "17 ×10⁻⁶ cm/s"
  }
]

----------
Biological target: UniProt:P08684
Sequence (P08684 whole entry): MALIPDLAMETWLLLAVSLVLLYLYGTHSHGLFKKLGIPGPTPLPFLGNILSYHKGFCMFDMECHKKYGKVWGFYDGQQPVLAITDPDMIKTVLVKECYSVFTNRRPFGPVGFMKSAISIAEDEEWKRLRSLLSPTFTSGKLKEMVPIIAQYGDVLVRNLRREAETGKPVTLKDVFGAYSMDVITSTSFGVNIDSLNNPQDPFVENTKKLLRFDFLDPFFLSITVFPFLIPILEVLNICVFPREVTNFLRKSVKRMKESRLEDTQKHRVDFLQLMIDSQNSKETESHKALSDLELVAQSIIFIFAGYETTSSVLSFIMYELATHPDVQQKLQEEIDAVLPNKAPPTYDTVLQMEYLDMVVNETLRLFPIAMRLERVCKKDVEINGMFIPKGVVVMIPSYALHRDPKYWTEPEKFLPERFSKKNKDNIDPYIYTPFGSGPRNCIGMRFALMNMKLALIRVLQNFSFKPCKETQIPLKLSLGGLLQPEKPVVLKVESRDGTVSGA
measurementType: IC50 (µM)

[
  {
    "cpdSmiles": "O=c1cc(-c2ccccc2)oc2cc(O)c(O)c(O)c12",
    "valueObserved": 9.2
  }
]

Hello, the source for this data is ChEMBL document CHEMBL4038271, in case you need it.
